target: recombinant Homo Sapiens kynurenine 3-monooxygenase (HsKMO) (Homo sapiens); construct: The gene encoding full-length human KMO was synthesized; glutathione S-transferase (GST; vector pAcGHLT-A); assay: Inhibition of recombinant Homo sapiens KMO (NADPH consumption at 340 nm); conditions: 0.5 μM HsKMO, L-Kyn 250 μM, NADPH 200 μM, pH 8.0, triplicate
Sequence (O15229 whole entry): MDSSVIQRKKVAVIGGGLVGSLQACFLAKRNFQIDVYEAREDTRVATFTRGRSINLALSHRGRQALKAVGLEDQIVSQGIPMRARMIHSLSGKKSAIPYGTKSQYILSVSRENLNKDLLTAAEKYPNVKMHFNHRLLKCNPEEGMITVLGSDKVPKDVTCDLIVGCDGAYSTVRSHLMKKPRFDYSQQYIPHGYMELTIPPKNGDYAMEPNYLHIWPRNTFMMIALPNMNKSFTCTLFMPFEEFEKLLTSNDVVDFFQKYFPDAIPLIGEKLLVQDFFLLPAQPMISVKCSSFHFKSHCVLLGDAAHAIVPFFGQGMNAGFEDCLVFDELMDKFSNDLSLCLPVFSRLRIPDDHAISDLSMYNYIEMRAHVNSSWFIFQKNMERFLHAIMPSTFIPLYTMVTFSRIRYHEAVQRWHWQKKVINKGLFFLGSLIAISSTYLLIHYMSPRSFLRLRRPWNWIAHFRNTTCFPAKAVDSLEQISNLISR
pIC50: −log10 of the molar value.
outcome-measure: pIC50

COC(=O)CN1C(=O)COc2cc(C)c(Cl)c(C)c21 [Example 1] = < 4.00
Cc1cc2c(c(C)c1Cl)N(CC(N)=O)C(=O)CO2 [Example 8] = < 4.00
Cc1cc2c(c(C)c1Cl)N(CC(=O)OC(C)(C)C)C(=O)CO2 [Example 4] = < 4.00
Cc1cc2c(c(C)c1Cl)N(CC(=O)OC(C)C)C(=O)CO2 [Example 3] = < 4.00
CNC(=O)CN1C(=O)COc2cc(C)c(Cl)c(C)c21 [Example 7] = < 4.00
Cc1cc2c(c(C)c1Cl)N(CC(=O)N(C)C)C(=O)CO2 [Example 6] = < 4.00
Cc1cc2c(c(C)c1Cl)N(Cc1nn[nH]n1)C(=O)CO2 [Example 9] = 5.89

Consider the additional molecule presented here.
Query (molecule): CCOC(=O)CN1C(=O)COc2cc(C)c(Cl)c(C)c21 [Example 2] ; field requested: pIC50
< 4.00
